- test.name: Stability in human plasma
- Type: in vitro ADME
- cond: pH 7.8; 2 μM peptidomimetic, pooled human plasma, 37° C.; read-out: half-life (t1/2) when incubated with human plasma
Non-standard residues stand in square brackets, D forms with d. Residues, ends and D or L forms follow the SMILES beside them. ξ: configuration not given here. *: point of attachment. X3 = CCc1cc(OC)ccc1-c1ccc(CC(N*)C(=S)NC(CCCc2ccccc2)C(N)=O)cc1; Leu(5,5,5,5',5',5'-F6) = N[C@@H](CC(C(F)(F)F)C(F)(F)F)C(=O)O; ξαMePhe(2-F) = CC(N)(Cc1ccccc1F)C(=O)O; aThr = C[C@H](O)[C@H](N)C(=O)O; Aib = CC(C)(N)C(=O)O
Listed below: half-life at 2 μM values for each entry.

Return half-life at 2 μM (reported value) for this molecule: CCc1cc(OC)ccc1-c1ccc(CC(NC(=O)[C@H](CC(=O)O)NC(=O)[C@H](CO)NC(=O)[C@@H](NC(=O)C(C)(Cc2ccccc2F)NC(=O)[C@@H](NC(=O)CNC(=O)C(CCC#N)NC(=O)C(C)(C)NC(=O)[C@H](Cc2c[nH]cn2)NC(=O)OC)[C@@H](C)O)[C@@H](C)O)C(=O)NC(CCCc2ccccc2)C(N)=O)cc1 (single isomer, unassigned)
> 24 h

Give recorded half-life at 2 μM. CCc1cc(OC)ccc1-c1ccc(CC(NC(=O)[C@H](CC(=O)O)NC(=O)[C@H](CO)NC(=O)[C@@H](NC(=O)C(C)(Cc2ccccc2F)NC(=O)[C@@H](NC(=O)CNC(=O)[C@H](CC(C(F)(F)F)C(F)(F)F)NC(=O)C(C)(C)NC(=O)[C@@H](N)Cc2c[nH]cn2)[C@H](C)O)[C@H](C)O)C(=S)NC(CCCc2ccccc2)C(N)=O)cc1 (stereo partly drawn) [compound 219] (H-H[Aib][Leu(5,5,5,5',5',5'-F6)]G[aThr][ξαMePhe(2-F)][aThr]SD-X3)
> 24 h

Consider the molecule CCc1cc(OC)ccc1-c1ccc(CC(NC(=O)[C@H](CC(=O)O)NC(=O)[C@H](CO)NC(=O)[C@@H](NC(=O)C(C)(Cc2ccccc2F)NC(=O)[C@@H](NC(=O)CNC(=O)C(CCC#N)NC(=O)C(C)(C)NC(=O)[C@H](Cc2c[nH]cn2)NC(C)=O)[C@@H](C)O)[C@@H](C)O)C(=O)NC(CCCc2ccccc2F)C(N)=O)cc1 (single isomer, unassigned) and give its recorded half-life at 2 μM.
> 24 h

---

# % degradation of peptidomimetics in 24 h when incubated with simulated intestinal fluid per entry
- test.name: Stability in simulated intestinal fluid
- Type: in vitro ADME
- cond: 2 μM peptidomimetic, simulated intestinal fluid pH 7.5, 37° C., 24 h
Note: a bare number is incomplete; add the unit.

For the compound CCc1cc(OC)ccc1-c1ccc(CC(NC(=O)[C@H](CC(=O)O)NC(=O)[C@H](CO)NC(=O)[C@@H](NC(=O)C(C)(Cc2ccccc2F)NC(=O)[C@@H](NC(=O)CNC(=O)C(CCC#N)NC(=O)C(C)(C)NC(=O)[C@@H](N)Cc2c[nH]cn2)[C@H](C)O)[C@@H](C)O)C(=O)NC(CCCc2ccccc2)C(N)=O)cc1 (single isomer, unassigned) [compound 110] , give its measured % degradation of peptidomimetics in 24 h when incubated with simulated intestinal fluid value.
00%

# return recorded % degradation of peptidomimetics in 24 h when incubated with simulated intestinal fluid for entry CCc1cc(OC)ccc1-c1ccc(CC(NC(=O)[C@H](CC(=O)O)NC(=O)[C@H](CO)NC(=O)[C@@H](NC(=O)[C@H](Cc2ccccc2)NC(=O)[C@@H](NC(=O)CNC(=O)C(CCC#N)NC(=O)C(C)(C)NC(=O)[C@@H](N)Cc2c[nH]cn2)[C@@H](C)O)[C@@H](C)O)C(=O)NC(CCCc2ccccc2)C(N)=O)cc1 (single isomer, unassigned) [compound 29]
00%

Specify measured % degradation of peptidomimetics in 24 h when incubated with simulated intestinal fluid for CCc1cc(OC)ccc1-c1ccc(CC(NC(=S)[C@H](CC(=O)O)NC(=O)[C@H](CO)NC(=O)[C@@H](NC(=O)C(C)(Cc2ccccc2F)NC(=O)[C@@H](NC(=O)CNC(=O)C(CCC#N)NC(=O)C(C)(C)NC(=O)[C@@H](N)Cc2c[nH]cn2)[C@H](C)O)[C@H](C)O)C(=S)NC(CCCc2ccccc2F)C(N)=O)cc1 (single isomer, unassigned) [compound 180] .
00%

---

Below: a set of entries, each annotated with reported blood glucose levels.
- Tested on: C57BL/6J mice (mild hyperglycemic)
- test.name: In vivo glucose reduction, acute single dose 120-min time-course, i.p. route
- Design: species or system mouse; unit not given here
- cond: male C57BL/6J mice, 30 nM/kg i.p., 30 min
Non-standard residues stand in square brackets, D forms with d. Residues, ends and D or L forms follow the SMILES beside them. ξ: configuration not given here. ξBip(2'-Et-4'-OMe) = CCc1cc(OC)ccc1-c1ccc(CC(N)C(=O)O)cc1; ξNva(5-(3,5-Me2-Ph)) = Cc1cc(C)cc(CCCC(N)C(=O)O)c1; ξNva(5-(3-Cl-Ph)) = NC(CCCc1cccc(Cl)c1)C(=O)O; Aib = CC(C)(N)C(=O)O
Lab note: record the figure alone, no unit after it.

INSERT INTO results (compound, reported) VALUES
  ('CCc1cc(OC)ccc1-c1ccc(CC(NC(=O)[C@H](CC(=O)O)NC(=O)[C@H](CO)NC(=O)[C@@H](NC(=O)[C@H](Cc2ccccc2)NC(=O)[C@@H](NC(=O)CNC(=O)[C@H](CCC(N)=O)NC(=O)C(C)(C)NC(=O)[C@@H](N)Cc2c[nH]cn2)[C@@H](C)O)[C@@H](C)O)C(=O)NC(CCCc2cc(C)cc(C)c2)C(N)=O)cc1 (stereo partly shown) [Seq. ID. 18] (H-H[Aib]QGTFTSD[ξBip(2''-Et-4''-OMe)][ξNva(5-(3,5-Me2-Ph))]-NH2)', 118),
  ('CCc1cc(OC)ccc1-c1ccc(CC(NC(=O)[C@H](CC(=O)O)NC(=O)[C@H](CO)NC(=O)[C@@H](NC(=O)[C@H](Cc2ccccc2)NC(=O)[C@@H](NC(=O)CNC(=O)[C@H](CCC(N)=O)NC(=O)[C@H](C)NC(=O)[C@@H](N)Cc2c[nH]cn2)[C@@H](C)O)[C@@H](C)O)C(=O)NC(CCCc2cccc(Cl)c2)C(N)=O)cc1 (stereo partly shown) [Seq. ID. 15] (H-HAQGTFTSD[ξBip(2''-Et-4''-OMe)][ξNva(5-(3-Cl-Ph))]-NH2)', 119),
  ('CCc1cc(OC)ccc1-c1ccc(CC(NC(=O)[C@H](CC(=O)O)NC(=O)[C@H](CO)NC(=O)[C@@H](NC(=O)[C@H](Cc2ccccc2)NC(=O)[C@@H](NC(=O)CNC(=O)C(CCC#N)NC(=O)C(C)(C)NC(=O)[C@@H](N)Cc2c[nH]cn2)[C@@H](C)O)[C@@H](C)O)C(=O)NC(CCCc2ccccc2)C(N)=O)cc1 (single isomer, unassigned)', 116),
  ('CCc1cc(OC)ccc1-c1ccc(CC(C(=O)N(C)C(CCCc2ccccc2)C(N)=O)N(C)C(=O)[C@H](CC(=O)O)N(C)C(=O)[C@H](CO)NC(=O)[C@@H](NC(=O)C(C)(Cc2ccccc2F)NC(=O)[C@@H](NC(=O)CNC(=O)C(CCC#N)NC(=O)C(C)(C)NC(=O)[C@@H](N)Cc2c[nH]cn2)[C@H](C)O)[C@H](C)O)cc1 (single isomer, unassigned)', 117),
  ('CCc1cc(OC)ccc1-c1ccc(CC(NC(=O)[C@H](CC(=O)O)NC(=O)[C@H](CO)NC(=O)[C@@H](NC(=O)C(C)(Cc2ccccc2F)NC(=O)[C@@H](NC(=O)CNC(=O)C(CCC#N)NC(=O)C(C)(C)NC(=O)[C@@H](N)Cc2c[nH]cn2)[C@@H](C)O)[C@H](C)O)C(=O)NC(CCCc2ccccc2F)C(N)=O)cc1 (single isomer, unassigned)', 118);

Answer briefly: blood glucose levels recorded on C57BL/6J mice (mild hyperglycemic) for CCc1cc(OC)ccc1-c1ccc(CC(C(=O)N(C)C(CCCc2ccccc2F)C(N)=O)N(C)C(=O)[C@H](CC(=O)O)N(C)C(=O)[C@H](CO)NC(=O)[C@@H](NC(=O)C(C)(Cc2ccccc2F)NC(=O)[C@@H](NC(=O)CNC(=O)C(CCC#N)NC(=O)C(C)(C)NC(=O)[C@@H](N)Cc2c[nH]cn2)[C@H](C)O)[C@H](C)O)cc1 (single isomer, unassigned)
119

Write down measured blood glucose levels (C57BL/6J mice (mild hyperglycemic)) for this compound. CCc1cc(OC)ccc1-c1ccc(CC(C(=O)N(C)C(CCCc2ccccc2)C(N)=O)N(C)C(=O)[C@H](CC(=O)O)NC(=O)[C@H](CO)NC(=O)[C@@H](NC(=O)C(C)(Cc2ccccc2F)NC(=O)[C@@H](NC(=O)CNC(=O)C(CCC#N)NC(=O)C(C)(C)NC(=O)[C@@H](N)Cc2c[nH]cn2)[C@H](C)O)[C@H](C)O)cc1 (single isomer, unassigned)
117

Data origin, for the record: patent US8883963B2
